Field: logP. Provide a value for each of the compounds that follow.
Answers are plain numbers.

Quick one: give me logP for each item below, same order please.
1. CC(C)(C)NC[C@H](O)COc1ccc(Cc2ncc(-c3cccs3)[nH]2)cc1
2. COc1ccc(CCNC[C@H](O)COc2ccc(Cc3ncc(C)[nH]3)cc2)cc1OC

Result string:
[2.57, 1.28]

Quick one: give me logP for each item below, same order please.
1. CCOCCNCC(O)COc1ccc(-c2ncc(-c3cccs3)[nH]2)cc1 (stereo not given)
2. CC(C)NCC(O)COc1ccc(-c2ncc(-c3cccs3)[nH]2)cc1 (stereo not given)

Result string:
[2.25, 2.18]

Query string: Quick check: logP of "COc1ccc(CCNC[C@H](O)COc2ccc(-c3ncc(C(C)(C)C)[nH]3)cc2)cc1OC" ?
Result string: 2.86
